Molecular target: T1, PDZD7_3, Q9H5P4
T1 sequence (Q9H5P4 857-944, limits assumed, looked up): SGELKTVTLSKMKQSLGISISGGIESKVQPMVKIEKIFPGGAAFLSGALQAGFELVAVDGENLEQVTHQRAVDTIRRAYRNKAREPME
Assay: holdup assay
Design: key: below the threshold = too weak to quantify, mostly under pKd 3.1 to 4
Details: plain residues with an end cap or a label only (N-terminal biotin on a linker: ado-ado)
Label yes when pKd is at or above 5; otherwise label no.

Study these solved cases before continuing.
>>> print(df.to_string())
                                  binder  group_label
0            HSGYRLNDYV [CLDN14, O95500]           no
1           SAKVRTVTSV [RASL11B, Q9BPW5]           no
2           DDENIRTSDV [PLEKHA2, Q9HB19]           no
3             PPYRHRNTVV [ERBB4, Q15303]           no
4          ETQVTAETVI [TMEM225B, P0DP42]          yes
5  LPAHHNATRL [SLC34A1, Q06495;Q06495-1]           no
6              LGRSTPQSEV [DGKH, Q86XP1]           no
7             EVNETDDTKM [KCNJ1, P48048]           no
8            AKPSRISTVV [IQSEC2, Q5JU85]          yes

QUERY: # check: pKd of RRRESYSTTV [EVI5, O60447] is greater than or equal to 5
RESULT: no

The measurements presented in this section are drawn from paper PMC9482650.
